These entries and their values trace back to ChEMBL document CHEMBL1130536.

target desc: Glutamate NMDA receptor
method: Binding affinity against glycine binding site of NMDA receptor using [3H]glycine
readout type: Ki

# molecule, Ki
records = [
    ("O=c1[nH]c2cc(-n3ccnc3)c([N+](=O)[O-])cc2[nH]c1=O [YM-90K]", "7.4 µM"),
    ("O=C(NCc1ccn(-c2cc3nc(O)c(O)nc3cc2C(F)(F)F)c1)Nc1ccc(C(=O)O)cc1", "> 30 µM"),
]

Prompt line: Please report the recorded Ki for CCOC(=O)c1cccc(NC(=O)NCc2ccn(-c3cc4c(cc3C(F)(F)F)[nH]c(=O)c(=O)n4CC(=O)O)c2)c1 .
Response line: > 30 µM

Prompt line: Please report the recorded Ki for O=C(O)c1ccn(-c2cc3nc(O)c(O)nc3cc2[N+](=O)[O-])c1 .
Response line: > 30 µM

Prompt line: Please report the recorded Ki for CCOC(=O)Cn1c(=O)c(=O)[nH]c2cc(C(F)(F)F)c(-n3ccc(C(=O)O)c3)cc21 .
Response line: > 30 µM

Prompt line: Please report the recorded Ki for NS(=O)(=O)c1cccc2c1c([N+](=O)[O-])cc1nc(O)c(O)nc12 [NBQX] .
Response line: 33 µM

Prompt line: Please report the recorded Ki for CCOC(=O)c1ccc(NC(=O)NCc2ccn(-c3cc4c(cc3C(F)(F)F)[nH]c(=O)c(=O)n4CC(=O)O)c2)cc1 .
Response line: > 30 µM

Prompt line: Please report the recorded Ki for O=C(O)Cn1c(=O)c(=O)[nH]c2cc(C(F)(F)F)c(-n3ccc(CNC(=O)Nc4ccc(C(=O)O)cc4)c3)cc21 .
Response line: > 30 µM

====

Tested on: Mus musculus
method: Mean effective dose that protects 50% of the mice against AMPA-induced lethality when it administered ip, 60 minutes prior to application of AMPA icv
Type: functional
Let's look at some compounds and their measured ED50.
Give just the number in mg/kg; leave the unit off.

# compound, units label, meas value
records = [
    ("CCOC(=O)c1cccc(NC(=O)NCc2ccn(-c3cc4c(cc3C(F)(F)F)[nH]c(=O)c(=O)n4CC(=O)O)c2)c1", "mg/kg", 2.9),
    ("O=c1[nH]c2cc(-n3ccnc3)c([N+](=O)[O-])cc2[nH]c1=O [YM-90K]", "mg/kg", 13),
    ("CCOC(=O)c1ccc(NC(=O)NCc2ccn(-c3cc4c(cc3C(F)(F)F)[nH]c(=O)c(=O)n4CC(=O)O)c2)cc1", "mg/kg", 0.8),
    ("O=C(O)Cn1c(=O)c(=O)[nH]c2cc(C(F)(F)F)c(-n3ccc(CNC(=O)Nc4cccc(C(=O)O)c4)c3)cc21", "mg/kg", 3.5),
    ("O=C(O)Cn1c(=O)c(=O)[nH]c2cc([N+](=O)[O-])c(-n3ccc(C(=O)O)c3)cc21", "mg/kg", 1.4),
    ("O=C(O)Cn1c(=O)c(=O)[nH]c2cc(C(F)(F)F)c(-n3ccc(C(=O)O)c3)cc21", "mg/kg", 2.3),
    ("O=C(O)Cn1c(=O)c(=O)[nH]c2cc(C(F)(F)F)c(-n3ccc(CNC(=O)Nc4ccc(C(=O)O)cc4)c3)cc21", "mg/kg", 0.27),
]

With those in mind, consider the next compound.
Prompt line: Please report the recorded ED50 for O=C(O)c1ccn(-c2cc3nc(O)c(O)nc3cc2[N+](=O)[O-])c1 .
Response line: 17
